Quick reference for EC50 among some molecules
Biological target: TRβ (Homo sapiens)
Construct: host or cells: HEK293T
Sequence (P10828 217-461 limits assumed): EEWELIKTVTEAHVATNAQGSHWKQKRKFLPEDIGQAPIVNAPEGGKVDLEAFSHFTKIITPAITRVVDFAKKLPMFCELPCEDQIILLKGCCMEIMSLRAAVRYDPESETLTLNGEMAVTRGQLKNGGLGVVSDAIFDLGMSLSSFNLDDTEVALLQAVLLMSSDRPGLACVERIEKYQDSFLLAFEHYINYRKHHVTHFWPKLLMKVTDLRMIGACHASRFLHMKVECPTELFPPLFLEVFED
Sequence (P19793 227-458 partner limits assumed): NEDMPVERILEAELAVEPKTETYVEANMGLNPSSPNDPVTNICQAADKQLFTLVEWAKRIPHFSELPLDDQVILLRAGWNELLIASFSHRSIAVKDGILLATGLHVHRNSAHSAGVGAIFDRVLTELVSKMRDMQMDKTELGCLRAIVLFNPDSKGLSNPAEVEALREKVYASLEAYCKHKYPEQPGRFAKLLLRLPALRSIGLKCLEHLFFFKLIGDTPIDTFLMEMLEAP
Test: In vitro TRβ cell transfection experiment (GAL4 luciferase reporter, HEK293T)
Assay type: cell-based

# MOLECULE, EC50 [µM]
data = [
    ("N#Cc1nn(-c2cc(Cl)c(Oc3ncc(O)c(Cc4ccc(F)cc4)n3)c(Cl)c2)c(=O)[nH]c1=O [KHE001]", 0.258),
    ("CC(C)c1nc(Oc2c(Cl)cc(-n3nc(C#N)c(=O)[nH]c3=O)cc2Cl)ncc1O [KH03]", 0.089),
    ("CCC(CC)c1nc(Oc2c(Cl)cc(-n3nc(C#N)c(=O)[nH]c3=O)cc2Cl)ncc1O [KHE009]", 0.074),
    ("N#Cc1nn(-c2cc(Cl)c(Oc3ncc(O)c(C4CC4)n3)c(Cl)c2)c(=O)[nH]c1=O [KHE017]", 0.88),
    ("CC(C)c1nc(Sc2c(Cl)cc(-n3ncc(=O)[nH]c3=O)cc2Cl)ncc1O [KH18]", 0.007),
    ("CC(C)c1nc(Oc2c(Cl)cc(-n3nc(C#N)c(=O)[nH]c3=O)c3c2CCO3)ncc1O [KH07]", 0.208),
    ("O=c1cnn(-c2cc(Cl)c(Oc3ncc(O)c(CC4CCCCC4)n3)c(Cl)c2)c(=O)[nH]1 [KHE008]", 0.008),
    ("CC(C)c1nc(Oc2c(Cl)cc(-n3ncc(=O)[nH]c3=O)c3c2CCC3)ncc1O [KH14]", 0.148),
    ("O=c1cnn(-c2cc(Cl)c(Oc3ncc(O)c(C4CC4)n3)c(Cl)c2)c(=O)[nH]1 [KHE018]", 0.102),
    ("O=c1cnn(-c2cc(Cl)c(Oc3ncc(O)c(Cc4ccc(F)cc4)n3)c(Cl)c2)c(=O)[nH]1 [KHE002]", 0.004),
    ("CC(C)c1nc(Oc2c(Cl)cc(-n3nc(C#N)c(=O)[nH]c3=O)c3c2CCC3)ncc1O [KH13]", 1.13),
    ("CC(C)c1nc(Oc2c(Cl)cc(NC(=O)C(=O)O)cc2Cl)ncc1O [KHE021]", 0.5),
    ("O=c1cnn(-c2cc(Cl)c(Oc3ncc(O)c(Cc4ccccc4)n3)c(Cl)c2)c(=O)[nH]1 [KH10]", 0.032),
    ("CC(C)c1nc(Oc2c(Cl)cc(NCC(=O)O)cc2Cl)ncc1O [KH04]", 1.28),
]

====

Biological target: TRα (Homo sapiens)
Construct: host or cells: HEK293T
Sequence (P10827 1-410 isoform P10827-2, one chain of several): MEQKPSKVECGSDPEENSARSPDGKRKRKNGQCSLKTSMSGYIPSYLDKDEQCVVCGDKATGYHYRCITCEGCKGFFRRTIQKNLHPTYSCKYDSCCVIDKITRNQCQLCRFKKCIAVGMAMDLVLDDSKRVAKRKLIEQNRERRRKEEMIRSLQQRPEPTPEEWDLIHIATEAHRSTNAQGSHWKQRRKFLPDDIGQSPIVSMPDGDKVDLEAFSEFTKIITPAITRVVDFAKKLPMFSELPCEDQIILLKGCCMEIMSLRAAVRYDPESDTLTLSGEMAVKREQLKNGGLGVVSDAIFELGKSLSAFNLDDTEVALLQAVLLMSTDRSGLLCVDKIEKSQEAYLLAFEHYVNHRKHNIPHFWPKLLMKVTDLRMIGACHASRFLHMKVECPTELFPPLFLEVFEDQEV
Test: In vitro TRα cell transfection experiment (GAL4 luciferase reporter, HEK293T)
Format: cell-based
So basically: is EC50 under 0.4 µM? Then True. Not under? Then False.

# SMILES_CODE, ASSIGNED_CATEGORY
data = [
    ("N#Cc1nn(-c2cc(Cl)c(Oc3ncc(O)c(C4CC4)n3)c(Cl)c2)c(=O)[nH]c1=O", "False"),
    ("[2H]C([2H])([2H])C(c1nc(Oc2c(Cl)cc(-n3ncc(=O)[nH]c3=O)cc2Cl)ncc1O)C([2H])([2H])[2H]", "True"),
    ("CC(C)c1nc(Oc2c(Cl)cc(-n3nc(C#N)c(=O)[nH]c3=O)c3c2CCO3)ncc1O", "False"),
    ("[2H]C([2H])([2H])C(c1nc(Oc2c(Cl)cc(-n3nc(C#N)c(=O)[nH]c3=O)cc2Cl)ncc1O)C([2H])([2H])[2H]", "False"),
    ("N#Cc1nn(-c2cc(Cl)c(Oc3ncc(O)c(Cc4ccc(F)cc4)n3)c(Cl)c2)c(=O)[nH]c1=O", "False"),
    ("O=c1cnn(-c2cc(Cl)c(Oc3ncc(O)c(Cc4ccc(F)cc4)n3)c(Cl)c2)c(=O)[nH]1", "True"),
]

====

Test system: primary hepatocyte
Experiment: Hepatotoxicity detection in vitro (CellTiter-Glo)
Assay type: cell-based, human
Conditions: Homo sapiens, Hepatocyte; primary hepatocytes, cell viability after 48 hours
pIC50: −log10 of the molar value.
Quick reference for pIC50 among some molecules

# SMILES_CODE, pIC50
data = [
    ("CC(C)c1nc(Oc2c(Cl)cc(-n3ncc(=O)[nH]c3=O)cc2Cl)ncc1O", 3.68),
    ("O=c1cnn(-c2cc(Cl)c(Oc3ncc(O)c(Cc4ccccc4)n3)c(Cl)c2)c(=O)[nH]1", 3.80),
    ("CC(C)c1nc(Oc2c(Cl)cc(-n3nc(C#N)c(=O)[nH]c3=O)cc2Cl)ncc1O", 3.58),
]

====

Target: TRβ (Homo sapiens)
Construct: host or cells: HEK293T
Assay: In vitro TRβ cell transfection experiment (GAL4 luciferase reporter, HEK293T)
Type: cell-based

# SMILES_CODE, EC50, µM
measured = [
    ("[2H]C([2H])([2H])C(c1nc(Oc2c(Cl)cc(-n3nc(C#N)c(=O)[nH]c3=O)cc2Cl)ncc1O)C([2H])([2H])[2H]", 0.205),
    ("[2H]C([2H])([2H])C(c1nc(Oc2c(Cl)cc(-n3ncc(=O)[nH]c3=O)cc2Cl)ncc1O)C([2H])([2H])[2H]", 0.019),
    ("CC(C)c1nc(Oc2c(Cl)cc(-n3ncc(=O)[nH]c3=O)cc2Cl)ncc1O", 0.009),
    ("N#Cc1nn(-c2cc(Cl)c(Oc3ncc(O)c(CC4CCCCC4)n3)c(Cl)c2)c(=O)[nH]c1=O", 0.227),
]

====

Test: PK experiment of cynomolgus monkeys
Type: in vivo
Conditions: male, cynomolgus monkey, plasma; PO 5 mg/kg vs IV 1 mg/kg; read-out: Bioavailability (F)
Quick reference for bioavailability among some compounds

# COMPOUND, UNIT_TEXT, bioavailability
records = [
    ("CC(C)c1nc(Oc2c(Cl)cc(-n3ncc(=O)[nH]c3=O)cc2Cl)ncc1O [KH06]", "%", 73),
    ("CC(C)c1cc(Oc2c(Cl)cc(-n3nc(C#N)c(=O)[nH]c3=O)cc2Cl)n[nH]c1=O [MGL3196, reference compound]", "%", 8.47),
]

====

Molecular target: TRα-LBD/RXRα (Homo sapiens, UniProt P10827)
Construct: TRα-LBD (Invitrogen, PV4762), or TRβ-LBD (Invitrogen, PV4764) with a GST tag were used; purchased Invitrogen (TRα-LBD); Pharmaron (RXRα) PV4762
Sequence (P10827 1-410 isoform P10827-2, other chains not shown): as the sequence (P10827 1-410 isoform P10827-2, one chain of several) above
Sequence (P19793 whole entry partner, other chains not shown, the tested form may be a part): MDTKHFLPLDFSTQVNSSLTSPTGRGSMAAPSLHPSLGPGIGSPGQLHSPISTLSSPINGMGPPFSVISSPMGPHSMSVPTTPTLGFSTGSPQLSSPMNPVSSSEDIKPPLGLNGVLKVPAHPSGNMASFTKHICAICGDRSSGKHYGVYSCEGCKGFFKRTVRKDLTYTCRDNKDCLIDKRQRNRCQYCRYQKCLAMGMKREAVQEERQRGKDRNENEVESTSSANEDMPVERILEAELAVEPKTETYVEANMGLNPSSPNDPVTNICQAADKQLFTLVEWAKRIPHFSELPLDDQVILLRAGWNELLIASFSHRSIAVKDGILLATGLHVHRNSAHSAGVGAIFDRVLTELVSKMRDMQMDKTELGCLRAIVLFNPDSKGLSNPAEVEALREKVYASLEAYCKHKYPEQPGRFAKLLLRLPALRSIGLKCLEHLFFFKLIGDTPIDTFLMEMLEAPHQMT
Assay: In vitro binding experiment (TR-FRET SRC2-2 co-activator peptide recruitment), TRα
Assay type: biochemical
Conditions: 4 h incubation at room temperature
So basically: is EC50 under 0.3 µM? Then T. Not under? Then F.

# MOLECULE, ASSIGNED_CATEGORY
records = [
    ("CC(C)c1nc(Oc2c(Cl)cc(NCC(=O)O)cc2Cl)ncc1O [KH04]", "T"),
    ("O=c1cnn(-c2cc(Cl)c(Oc3ncc(O)c(Cc4ccc(F)cc4)n3)c(Cl)c2)c(=O)[nH]1 [KHE002]", "T"),
    ("[2H]C([2H])([2H])C(c1nc(Oc2c(Cl)cc(-n3ncc(=O)[nH]c3=O)cc2Cl)ncc1O)C([2H])([2H])[2H] [KH16]", "T"),
    ("CCC(CC)c1nc(Oc2c(Cl)cc(-n3ncc(=O)[nH]c3=O)cc2Cl)ncc1O [KHE010]", "T"),
    ("CC(C)c1nc(Oc2c(Cl)cc(-n3nc(C#N)c(=O)[nH]c3=O)c3c2CCC3)ncc1O [KH13]", "T"),
    ("CCC(CC)c1nc(Oc2c(Cl)cc(-n3nc(C#N)c(=O)[nH]c3=O)cc2Cl)ncc1O [KHE009]", "T"),
    ("O=c1cnn(-c2cc(Cl)c(Oc3ncc(O)c(CC4CCCCC4)n3)c(Cl)c2)c(=O)[nH]1 [KHE008]", "F"),
    ("N#Cc1nn(-c2cc(Cl)c(Oc3ncc(O)c(C4CC(F)(F)C4)n3)c(Cl)c2)c(=O)[nH]c1=O [KHE019]", "F"),
]
